- System: HCT-116
- assay-info: Antiproliferative activity against human HCT-116 cells measured after 24 hrs by MTT assay
- Assay type: functional, cell-based
- measurement-conditions: HCT-116, 24 h
property-measured: pIC50
By convention, pIC50 is the negative base-10 log of a molar concentration.

// below: answered compounds
INSERT INTO results (chemical_string, recorded_result) VALUES
  ('CCCC(CCC)C(=O)N[C@@H](Cc1ccccc1)C(=O)NO', 5.02),
  ('COc1cccc2c1C(=O)c1c(O)c3c(c(O)c1C2=O)C[C@@](O)(C(=O)CO)C[C@@H]3O[C@H]1C[C@H](N)[C@H](O)[C@H](C)O1', 5.38);

Here is another compound to look at.
pIC50 measured on CCCC(CCC)C(=O)O = 5.33
